Values from ChEMBL document CHEMBL2375308

Tested on: PBMC
Experiment: Cytotoxicity against human PBMC cells at 50 ug/mL after 24 hrs by MTT assay relative to DMSO-treated control
Type: cell-based
Lab note: compare Activity against 80%. Equal or greater, write TRUE. Smaller, write FALSE.

The examples below pair each entry with its known result.
{"SMILES_REPRESENTATION": "CSc1ccc2c(c1)Sc1cc3ccccc3nc1N2CCN1CCCCC1", "STUDY_TARGET": "PBMC", "ASSIGNED_LABEL": "TRUE"}
{"SMILES_REPRESENTATION": "Clc1cccc2c1Sc1cc3ccccc3nc1N2", "STUDY_TARGET": "PBMC", "ASSIGNED_LABEL": "FALSE"}
{"SMILES_REPRESENTATION": "Clc1ccc2c(c1)Sc1cc3ccccc3nc1N2CCN1CCCCC1", "STUDY_TARGET": "PBMC", "ASSIGNED_LABEL": "TRUE"}

Given Cc1ccc2c(c1)Sc1cc3ccccc3nc1N2 , state whether its Activity is at least 80%.
FALSE

Given the entry CSc1ccc2c(c1)Sc1cc3ccccc3nc1N2CCCCNC(=O)NCCCl , answer whether its Activity meets or surpasses 80%.
TRUE
